Recorded ED50 by entry
# System: extensor tonus in electroshocked mice
# ASSAY_TEXT: Inhibition of extensor tonus induced by electroshock in mice (anticonvulsant)
# Assay type: in vivo
# CONDITION_SUMMARY: Mus musculus, effective dose for 50% inhibition of extensor tonus

Example entries begin here.
CC1=C2C(=C(c3ccccc3F)N=CC(=O)N2C)NO1 : 79.8 mg/kg
CC1=C2C(=C(c3ccccc3)N=CC(=O)N2C)NO1 : 25.1 mg/kg
CC1=C2C(=C(c3ccccc3Cl)N=CC(=O)N2C)NO1 : 35.6 mg/kg

Now look at this entry.
Q: Form field: ED50 recorded for CC(=O)Nc1nnc(S(N)(=O)=O)s1 [acetazolamide, reference compound] with extensor tonus in electroshocked mice (enter value)
Result: 29.1 mg/kg
